# Test system: DeltatarO mutant
# Experiment Summary: S. aureus survival, RN4220 and DeltatarO strains – OD600, teichoic acid synthesis inhibitors, primary screen (AID 463173)
# Condition Set: S. aureus RN4220 wild type/DeltatarO growth, OD600, 18 h, stronger effect = lower value, screened at 18.75 µg/mL (by protocol)
Screen size: about 52,000 compounds; about 4,300 (8.3%) were called active. Many of the other results were omitted from the sample, so actives are more common in it than they were.
Lab note: compare survival with 80%, writing YES if less and NO if equal or more.

| Cpd Smiles | Category Label |
| --- | --- |
| Cc1ccc(-n2c(=O)[nH]c3sc4c(c3c2=O)CCCC4)cc1 | NO |
| CCc1ccc(OCC(=O)Nc2c(C(=O)c3ccc(Br)cc3)oc3ccccc23)cc1 | NO |
| CCSc1nc2sc3c(c2c(=O)n1-c1ccc(C)cc1)CCCC3 | YES |
| O=C(c1ccc2c(c1)N(Cc1ccccc1)C(=O)c1ccccc1S2(=O)=O)N1CCCCCC1 | YES |

###

# System: DeltatarO mutant
# Experiment Summary: S. aureus survival, RN4220 and DeltatarO strains – OD600, teichoic acid synthesis inhibitors, primary screen (AID 463173)
# Condition Set: S. aureus RN4220 wild type/DeltatarO growth, OD600, 18 h, stronger effect = lower value, screened at 18.75 µg/mL (by protocol)
Hit rate of the full screen: of about 52,000 compounds, about 4,300 (8.3%) were called active. This is one part of a sample in which actives are shown more often than they occur.
Catalogue of survival readings, one per entry.

| Compound | Tgt | survival |
| --- | --- | --- |
| CCOC(=O)c1cccc(NC(=O)Cn2cnc3nc4c(cc3c2=O)CCCC4)c1 | DeltatarO mutant | 94% (inactive) |
| COc1ccc(CNC(=O)CCc2c(C)nn(-c3ccc(N4CCCC4)nn3)c2C)c(OC)c1 | DeltatarO mutant | 75% (inactive) |
| CCOC(=O)c1ccc(NC(=O)CCc2c(C)nc3cc(-c4ccc(OC)cc4OC)nn3c2C)cc1 | DeltatarO mutant | 62% (inactive) |
| CCC(C)c1ccc(OCC(=O)Nc2ccc(-c3nc4ncccc4o3)cc2)cc1 (configuration not stated) | DeltatarO mutant | 44% (inactive) |
| O=C(CCC(=O)N1CC2CCCN2c2ccccc21)NCc1ccccc1Cl (configuration not stated) | DeltatarO mutant | 69% (inactive) |
| CCSc1ncc(Cl)c(C(=O)N(Cc2ccccc2)c2ccc(OC)cc2)n1 | DeltatarO mutant | 100% (inactive) |
| COCCN1C(=O)c2oc3cc(C)cc(C)c3c(=O)c2C1c1cccc(O)c1 (configuration not stated) | DeltatarO mutant | 71% (inactive) |
| COc1cccc(NC(=O)Cn2nc(N3CCN(c4ccccc4)CC3)ccc2=O)c1 | DeltatarO mutant | 77% (inactive) |
| CC(C)(O)C1Cc2cc(/C=C/C(=O)O)c(O)cc2O1 (configuration not stated) | DeltatarO mutant | 88% (inactive) |
| CCc1ccc(C(=O)c2cn(CC(=O)Nc3cccc(OC)c3)c3cc4c(cc3c2=O)OCO4)cc1 | DeltatarO mutant | 72% (inactive) |
| O=C(Cn1nc2c(cc1=O)CCCC2)NCc1ccccc1 | DeltatarO mutant | 105% (inactive) |
| COc1ccc(CN(C(=O)c2ccco2)c2ccccc2)cc1 | DeltatarO mutant | 96% (inactive) |
| CCC(C)c1ccc(OCC(=O)Nc2cccc(-c3nc4ncccc4o3)c2)cc1 (configuration not stated) | DeltatarO mutant | 19% (active) |
| CCOC(=O)c1cccc(NC(=O)Cn2nc3c(cc2=O)CCCC3)c1 | DeltatarO mutant | 37% (active) |
| COc1ccc(CNC(=O)Cn2nc3c(cc2=O)CCCC3)cc1 | DeltatarO mutant | 46% (active) |
| CCOc1ccc(NC(=O)CCc2c(C)nc3cc(-c4ccccc4OC)nn3c2C)cc1 | DeltatarO mutant | 53% (active) |
| COc1ccc(CCNC(=O)CCc2c(C)nc3cc(-c4ccc(Cl)cc4)nn3c2C)c(OC)c1 | DeltatarO mutant | 108% (inactive) |
| CCCSc1ncc(Cl)c(C(=O)N(Cc2ccccc2)c2ccc(OC)cc2)n1 | DeltatarO mutant | 45% (active) |
| CCOc1ccc(NC(=O)CC2C(=O)N(c3ccccc3)C(=O)N2Cc2ccc3c(c2)OCO3)cc1 (configuration not stated) | DeltatarO mutant | 79% (inactive) |
| COc1ccc(NC(=O)c2ccco2)cc1NC(=O)COc1cc(C)ccc1C(C)C | DeltatarO mutant | 63% (inactive) |
| Cc1cccc(C)c1Nc1c(-c2cccs2)nc2ncccn12 | DeltatarO mutant | 76% (inactive) |
| CC(C)c1ccc(NC(=O)CCNS(=O)(=O)c2ccc3c(c2)CCCC(=O)N3)cc1 | DeltatarO mutant | 77% (inactive) |
| CCS(=O)(=O)c1ncc(Cl)c(C(=O)N(Cc2ccccc2)c2ccc(OC)cc2)n1 | DeltatarO mutant | 36% (active) |
| Cc1ccc(CNC(=O)CCC(=O)N2CC3CCCN3c3ccccc32)cc1 (configuration not stated) | DeltatarO mutant | 83% (inactive) |
| Cc1ccn2c(Nc3ccc4c(c3)OCCO4)c(-c3ccc(Cl)s3)nc2c1 | DeltatarO mutant | 102% (inactive) |
| Cc1ccn2c(Nc3c(C)cccc3C)c(-c3ccc(Cl)s3)nc2c1 | DeltatarO mutant | 37% (active) |
| Cc1ccc(NC(=O)Cn2nc3c(cc2=O)CCCC3)cc1Cl | DeltatarO mutant | 93% (inactive) |
| Cc1cccc(C)c1Nc1c(-c2ccsc2)nc2ccccn12 | DeltatarO mutant | 43% (inactive) |
| O=C(CCC(=O)N1CC2CCCN2c2ccccc21)NCc1ccc(F)cc1 (configuration not stated) | DeltatarO mutant | 0% (active) |
| COc1ccccc1-c1cc2nc(C)c(CCC(=O)Nc3ccc(Br)c(C)c3)c(C)n2n1 | DeltatarO mutant | 67% (inactive) |
| COc1ccc(N(Cc2ccccc2)C(=O)c2nc(S(C)(=O)=O)ncc2Cl)cc1 | DeltatarO mutant | 51% (inactive) |
| Cc1ccn2c(Nc3c(C)cccc3C)c(-c3ccsc3)nc2c1 | DeltatarO mutant | 35% (active) |
| Cc1cc(C)c2c(=O)c3c(oc2c1)C(=O)N(Cc1ccco1)C3c1ccc(F)cc1 (configuration not stated) | DeltatarO mutant | 53% (inactive) |
| COc1cc(NC(=O)c2cc3cc4ccc(C)cc4nc3o2)cc(OC)c1OC | DeltatarO mutant | 89% (inactive) |
| Cc1ccc(C(C)C)c(OCC(=O)Nc2cccc(NC(=O)c3ccco3)c2)c1 | DeltatarO mutant | 10% (active) |
| CCCC(=O)Nc1cccc(-c2nc3ncccc3o2)c1 | DeltatarO mutant | 66% (inactive) |
| COc1ccc(CNC(=O)CCc2c(C)nn(-c3ccc(N4CCCCC4)nn3)c2C)c(OC)c1 | DeltatarO mutant | 52% (active) |
